Catalogue of Relative LUC activity (%) in T877A AR in relation to testosterone (100%) readings, one per entry.
- test system: T877A AR (Homo sapiens, UniProt P10275, T878A)
- Construct: expressed in transfected cells; host or cells: COS-1 cells
- Sequence (P10275 whole entry T878A): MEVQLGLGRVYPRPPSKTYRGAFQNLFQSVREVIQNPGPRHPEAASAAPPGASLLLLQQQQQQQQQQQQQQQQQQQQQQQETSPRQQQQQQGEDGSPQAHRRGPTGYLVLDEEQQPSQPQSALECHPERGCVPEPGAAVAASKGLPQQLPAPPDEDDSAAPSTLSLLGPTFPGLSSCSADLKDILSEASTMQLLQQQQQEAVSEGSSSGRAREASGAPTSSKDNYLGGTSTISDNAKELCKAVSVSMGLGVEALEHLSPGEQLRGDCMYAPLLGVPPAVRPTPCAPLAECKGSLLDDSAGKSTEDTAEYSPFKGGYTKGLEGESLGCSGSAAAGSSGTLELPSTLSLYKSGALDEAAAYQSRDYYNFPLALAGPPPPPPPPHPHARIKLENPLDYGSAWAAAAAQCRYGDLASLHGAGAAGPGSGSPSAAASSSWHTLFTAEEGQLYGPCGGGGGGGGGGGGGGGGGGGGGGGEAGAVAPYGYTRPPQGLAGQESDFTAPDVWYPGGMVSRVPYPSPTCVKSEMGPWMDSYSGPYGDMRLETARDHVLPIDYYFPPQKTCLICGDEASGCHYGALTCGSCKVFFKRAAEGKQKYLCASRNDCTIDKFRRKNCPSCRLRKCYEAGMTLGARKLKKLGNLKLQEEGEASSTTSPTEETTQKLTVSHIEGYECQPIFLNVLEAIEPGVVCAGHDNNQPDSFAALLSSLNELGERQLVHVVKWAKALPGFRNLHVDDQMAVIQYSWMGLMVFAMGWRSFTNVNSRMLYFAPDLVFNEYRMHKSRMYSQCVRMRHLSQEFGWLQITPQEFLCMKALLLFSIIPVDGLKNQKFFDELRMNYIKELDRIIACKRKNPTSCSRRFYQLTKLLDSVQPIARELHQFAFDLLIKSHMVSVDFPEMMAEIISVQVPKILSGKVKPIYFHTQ
- assay method text: Agonism in T877A mutant AR, AR transactivation assay in COS-1 cells, test compounds alone
- Assay type: cell-based
- condition info: 10 microM; compound alone
test readout: Relative LUC activity (%) in T877A AR in relation to testosterone (100%)

[
  {
    "compound": "CC(C)S(=O)(=O)CC(O)(C(=O)Nc1ccc(C#N)c(C(F)(F)F)c1)c1ccc(Cl)nc1 (centres unmarked) [Example 12]",
    "observed result": 4
  },
  {
    "compound": "CCS(=O)(=O)CC(O)(C(=O)Nc1ccc(C#N)c(C(F)(F)F)c1)c1ccc(Cl)nc1 (centres unmarked) [Example 1]",
    "observed result": 13
  },
  {
    "compound": "CC(C)CCS(=O)(=O)CC(O)(C(=O)Nc1ccc(C#N)c(C(F)(F)F)c1)c1ccc(Cl)nc1 (centres unmarked) [Example 6]",
    "observed result": 4
  },
  {
    "compound": "N#Cc1ccc(NC(=O)C(O)(CS(=O)(=O)Cc2ccc(Cl)cc2)c2ccc(Cl)nc2)cc1Cl (centres unmarked) [Example 8]",
    "observed result": 2
  },
  {
    "compound": "N#Cc1ccc(NC(=O)C(O)(CS(=O)(=O)c2ccc(Cl)cc2)c2ccc(Cl)nc2)cc1Cl (centres unmarked) [Example 9]",
    "observed result": 3
  }
]
